- system: gastrin receptors or type-B cholecystokinin (CCK-B) receptors (Oryctolagus cuniculus, UniProt P46627)
- Construct: Rabbit gastric mucous-membrane cells were prepared by conventional techniques; endogenous in cells; host or cells: freshly isolated rabbit gastric mucosal cells, enriched by elutriation to about 70% parietal cells
- method description: Inhibition of the gastrin-induced increase of cytosolic calcium in rabbit gastric mucous-membrane cells (Fura 2)
- Format: cell-based
- setup conditions: rabbit gastric mucous cells enriched in parietal cells, gastrin 5×10^-8
measurement name: IC50, inhibition of the increase of cytosolic calcium (nM)
Numbers only, in nM.

Solved cases (2 shown):
CC1(C)CCC(NC(=O)[C@H](CCC(=O)O)NC(=O)CC[C@@H](NC(=O)c2cc(Cl)cc(Cl)c2)C(=O)N2CCC3(CCCC3)CC2)CC1 [Compound 34]	70
O=C(CC[C@@H](NC(=O)c1cc(Cl)cc(Cl)c1)C(=O)N1CCC2(CCCC2)CC1)N[C@@H](Cc1ccccc1)C(=O)O [Compound 10]	200

query: Need IC50, inhibition of the increase of cytosolic calcium of O=C(CC[C@@H](NC(=O)c1cc(Cl)cc(Cl)c1)C(=O)N1CCC2(CCCC2)CC1)N[C@H](Cc1ccc2ccccc2c1)C(=O)O [Compound 24] , thanks.
result: 30

---

- system: gastrin receptors or type-B cholecystokinin (CCK-B) receptors (Oryctolagus cuniculus, UniProt P46627)
- Construct: Rabbit gastric mucous-membrane cells were prepared by conventional techniques; endogenous in cells; host or cells: freshly isolated rabbit gastric mucosal cells, enriched by elutriation to about 70% parietal cells
- method description: Inhibition of the gastrin-induced increase of cytosolic calcium in rabbit gastric mucous-membrane cells (Fura 2)
- Assay type: cell-based
- setup conditions: binding values taken from Table 3
The recorded Ratio IC50 Binding cortex / IC50 (gastric mucous cells) of each item maps onto one of these classes: bin 0 = under 2, bin 1 = from 2 up to 7, bin 2 = 7 and over

For orientation, consider the following solved cases.
O=C(O)C[C@@H](Cc1ccccc1)NC(=O)CC[C@@H](NC(=O)c1cc(Cl)cc(Cl)c1)C(=O)N1CCC2(CCCC2)CC1 [Compound 15]	bin 2
O=C(CC[C@@H](NC(=O)c1cc(Cl)cc(Cl)c1)C(=O)N1CCC2(CCCC2)CC1)N[C@@H](Cc1c[nH]c2ccccc12)C(=O)O [Compound 20]	bin 2
O=C(C[C@@H](NC(=O)c1cc(Cl)cc(Cl)c1)C(=O)N1CCC2(CCCC2)CC1)N[C@H](Cc1c[nH]c2ccccc12)C(=O)O [Compound 43]	bin 2
O=C(N[C@H](CCC(=O)N1CCCC(C(=O)O)C1)C(=O)N1CCC2(CCCC2)CC1)c1cc(Cl)cc(Cl)c1 (stereo partly shown) [Compound 58]	bin 0
O=C(CC[C@@H](NC(=O)c1cc(Cl)cc(Cl)c1)C(=O)N1CCC2(CCCC2)CC1)NC(Cc1ccc(O)cc1)C(=O)O (stereo partly shown) [Compound 18]	bin 0

query: For Cc1cc(C(=O)O)ccc1NC(=O)CC[C@@H](NC(=O)c1cc(Cl)cc(Cl)c1)C(=O)N1CCC2(CCCC2)CC1 [Compound 52] , which Ratio IC50 Binding cortex / IC50 (gastric mucous cells) bin applies?
result: bin 0

query: Could you do the same for CC1(C)CCC(NC(=O)[C@H](CCC(=O)O)NC(=O)CC[C@@H](NC(=O)c2cc(Cl)cc(Cl)c2)C(=O)N2CCC3(CCCC3)CC2)CC1 [Compound 34] , please?
result: bin 2

query: Could you do the same for O=C(CC[C@@H](NC(=O)c1cc(Cl)cc(Cl)c1)C(=O)N1CCC2(CCCCC2)CC1)N[C@H](Cc1c[nH]c2ccccc12)C(=O)O [Compound 30] , please?
result: bin 2

query: Could you do the same for O=C(CC[C@@H](NC(=O)c1cc(Cl)cc(Cl)c1)C(=O)N1CCC2(CCCC2)CC1)N[C@@H](Cc1ccccc1)C(=O)O [Compound 10] , please?
result: bin 1

query: Could you do the same for O=C(CC[C@@H](NC(=O)c1cc(Cl)cc(Cl)c1)C(=O)N1CCC2(CCCC2)CC1)Nc1ccccc1C(=O)O [Compound 50] , please?
result: bin 2

query: Could you do the same for CN(C(=O)CC[C@@H](NC(=O)c1cc(Cl)cc(Cl)c1)C(=O)N1CCC2(CCCC2)CC1)c1ccccc1C(=O)O [Compound 51] , please?
result: bin 1

query: Could you do the same for O=C(O)CC[C@@H](NC(=O)c1cc(Cl)cc(Cl)c1)C(=O)N1CCC2(CCCC2)CC1 [CR 2194, reference compound] , please?
result: bin 1

query: Could you do the same for O=C(CC[C@@H](NC(=O)c1cc(Cl)cc(Cl)c1)C(=O)N1CCC2(CCCC2)CC1)N[C@H](Cc1ccccn1)C(=O)O [Compound 27] , please?
result: bin 0

---

- system: gastrin receptors or type-B cholecystokinin (CCK-B) receptors (Oryctolagus cuniculus, UniProt P46627)
- Construct: Rabbit gastric mucous-membrane cells were prepared by conventional techniques; endogenous in cells; host or cells: freshly isolated rabbit gastric mucosal cells, enriched by elutriation to about 70% parietal cells
- Sequence (P46627 1-452): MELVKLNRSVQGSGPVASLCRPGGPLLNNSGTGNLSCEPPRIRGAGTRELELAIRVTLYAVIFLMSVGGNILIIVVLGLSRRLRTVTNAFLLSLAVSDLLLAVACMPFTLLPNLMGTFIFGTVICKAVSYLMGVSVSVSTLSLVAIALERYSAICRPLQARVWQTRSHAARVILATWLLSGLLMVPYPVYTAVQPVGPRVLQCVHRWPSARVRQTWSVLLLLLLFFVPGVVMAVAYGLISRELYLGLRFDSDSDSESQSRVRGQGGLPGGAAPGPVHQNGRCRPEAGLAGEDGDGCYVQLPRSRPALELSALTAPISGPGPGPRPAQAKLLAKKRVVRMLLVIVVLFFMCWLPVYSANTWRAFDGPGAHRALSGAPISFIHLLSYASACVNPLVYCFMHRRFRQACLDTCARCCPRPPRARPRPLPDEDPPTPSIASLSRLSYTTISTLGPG
- method description: Inhibition of the gastrin-induced increase of cytosolic calcium in rabbit gastric mucous-membrane cells (Fura 2)
- Assay type: cell-based
- setup conditions: rabbit gastric mucous cells enriched in parietal cells, gastrin 5×10^-8
measurement name: IC50, inhibition of the increase of cytosolic calcium

Solved cases (2 shown):
CN(C(=O)CC[C@@H](NC(=O)c1cc(Cl)cc(Cl)c1)C(=O)N1CCC2(CCCC2)CC1)C(Cc1ccccc1)C(=O)O (stereo partly drawn) [Compound 11]	70 nM
O=C(C[C@@H](NC(=O)c1cc(Cl)cc(Cl)c1)C(=O)N1CCC2(CCCC2)CC1)N[C@H](Cc1c[nH]c2ccccc12)C(=O)O [Compound 43]	70 nM

Kindly consider the entry below.
query: Need IC50, inhibition of the increase of cytosolic calcium of O=C(CC[C@@H](NC(=O)c1cc(Cl)cc(Cl)c1)C(=O)N1CCC2(CCCC2)CC1)NC(CCc1ccccc1)C(=O)O (stereo partly drawn) [Compound 16] , thanks.
result: 150 nM

---

- system: CCK-A (Cavia porcellus, UniProt Q63931)
- Construct: A longitudinal strip of guinea-pig gall-bladder was put in a bath for isolated organs
- Sequence (Q63931 whole entry): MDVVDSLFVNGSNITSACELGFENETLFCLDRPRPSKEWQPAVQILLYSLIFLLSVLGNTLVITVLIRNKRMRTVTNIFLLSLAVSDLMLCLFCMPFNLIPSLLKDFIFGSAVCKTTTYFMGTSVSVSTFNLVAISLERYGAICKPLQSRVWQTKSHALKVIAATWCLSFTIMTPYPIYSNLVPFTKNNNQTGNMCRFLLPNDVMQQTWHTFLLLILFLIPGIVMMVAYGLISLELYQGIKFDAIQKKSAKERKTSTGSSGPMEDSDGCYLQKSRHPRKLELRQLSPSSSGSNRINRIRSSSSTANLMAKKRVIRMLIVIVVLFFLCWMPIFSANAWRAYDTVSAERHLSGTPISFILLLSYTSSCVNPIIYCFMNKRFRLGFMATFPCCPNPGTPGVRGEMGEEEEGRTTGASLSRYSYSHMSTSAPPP
- method description: Anti-CCK-A activity on guinea-pig gall bladder stimulated in vitro by CCK-8
- setup conditions: guinea-pig gall bladder in vitro, CCK-8 10 ng/ml; read-out: CCK-A-antagonistic activity IC50 (I)
Consider the following compounds; for each one, report its IC50.
Numbers only, in µM.

O=C(O)C[C@@H](Cc1ccccc1)NC(=O)CC[C@@H](NC(=O)c1cc(Cl)cc(Cl)c1)C(=O)N1CCC2(CCCC2)CC1	4.8
O=C(CC[C@@H](NC(=O)c1cc(Cl)cc(Cl)c1)C(=O)N1CCC2(CCCC2)CC1)Nc1ccccc1C(=O)O	4.8
O=C(CC[C@@H](NC(=O)c1cc(Cl)cc(Cl)c1)C(=O)N1CCC2(CCCC2)CC1)N[C@@H](Cc1c[nH]c2ccccc12)C(=O)O	41.9
O=C(CC[C@@H](NC(=O)c1cc(Cl)cc(Cl)c1)C(=O)N1CCC2(CCCCC2)CC1)N[C@H](Cc1c[nH]c2ccccc12)C(=O)O	14.7
O=C(CC[C@@H](NC(=O)c1cc(Cl)cc(Cl)c1)C(=O)N1CCC2(CCCC2)CC1)N[C@H](Cc1c[nH]c2ccccc12)C(=O)O	9.4

query: Need IC50 of O=C(CC[C@@H](NC(=O)c1cc(Cl)cc(Cl)c1)C(=O)N1CCC2(CCCC2)CC1)N[C@@H](Cc1ccccc1)C(=O)O , thanks.
result: 35.8

---

- system: gastrin receptors or type-B cholecystokinin (CCK-B) receptors (Oryctolagus cuniculus, UniProt P46627)
- Construct: Rabbit gastric mucous-membrane cells were prepared by conventional techniques; endogenous in cells; host or cells: freshly isolated rabbit gastric mucosal cells, enriched by elutriation to about 70% parietal cells
- method description: Inhibition of the gastrin-induced increase of cytosolic calcium in rabbit gastric mucous-membrane cells (Fura 2)
- Type: cell-based
- setup conditions: rabbit gastric mucous cells enriched in parietal cells, gastrin 5×10^-8
measurement name: IC50, inhibition of the increase of cytosolic calcium (nM)
Give bare numbers, in nM.

Solved cases (4 shown):
O=C(CC[C@@H](NC(=O)c1cc(Cl)cc(Cl)c1)C(=O)N1CCC2(CCCC2)CC1)Nc1ccc(C(=O)O)cc1 [Compound 47]	380
O=C(N[C@H](CCC(=O)N1CCCC(C(=O)O)C1)C(=O)N1CCC2(CCCC2)CC1)c1cc(Cl)cc(Cl)c1 (stereo partly drawn) [Compound 58]	330
O=C(CC[C@@H](NC(=O)c1cc(Cl)cc(Cl)c1)C(=O)N1CCC2(CCCC2)CC1)NC(Cc1c[nH]c2ccccc12)C(=O)O (stereo partly drawn) [Compound 19]	10
O=C(CC[C@@H](NC(=O)c1cc(Cl)cc(Cl)c1)C(=O)N1CCC2(CCCCC2)CC1)N[C@H](Cc1c[nH]c2ccccc12)C(=O)O [Compound 30]	8

Kindly consider the entry below.
query: Need IC50, inhibition of the increase of cytosolic calcium of O=C(O)CC[C@@H](NC(=O)c1cc(Cl)cc(Cl)c1)C(=O)N1CCC2(CCCC2)CC1 [CR 2194, reference compound] , thanks.
result: 380
